assay: Enter CNS (BBB); conditions: in vivo
readout.kind: Enter CNS (BBB)

{"compound.structure": "C[N+]1=C(/C=C/c2ccc(-c3ccc(-c4ccc(O)cc4)s3)s2)C(C)(C)c2ccccc21.[Cl-]", "readout.kind": "Enter CNS (BBB)", "reported.result": "No"}
{"compound.structure": "CN(C)c1ccc(-c2sc(-c3ccc(C=C(C#N)C#N)s3)c3ccccc23)cc1", "readout.kind": "Enter CNS (BBB)", "reported.result": "No"}
{"compound.structure": "CN(C)c1ccc(-c2ccc(-c3ccc(C=C4C(=C(C#N)C#N)c5ccccc5C4=C(C#N)C#N)s3)s2)cc1", "readout.kind": "Enter CNS (BBB)", "reported.result": "Yes"}

----------
test: Near-IR spectra of dye compounds; format: physicochemical

{"compound": "CN(C)c1ccc(-c2ccc(-c3ccc(C=C4C(=C(C#N)C#N)c5ccccc5C4=C(C#N)C#N)s3)s2)cc1 [NIAD7]", "Near-IR spectra": "No"}
{"compound": "CN(C)c1ccc(-c2sc(-c3ccc(C=C(C#N)C#N)s3)c3ccccc23)cc1 [NIAD6]", "Near-IR spectra": "Yes"}
{"compound": "C[N+]1=C(/C=C/c2ccc(-c3ccc(-c4ccc(O)cc4)s3)s2)C(C)(C)c2ccccc21.[Cl-] [NIAD3]", "Near-IR spectra": "Yes"}
{"compound": "CC1(C)C(/C=C/c2ccc(-c3ccc(-c4ccc(O)cc4)s3)s2)=[N+](CCCS(=O)(=O)[O-])c2ccccc21 [NIAD1]", "Near-IR spectra": "Yes"}
